- tested_target: DNA polymerase subunit gamma-1 (Homo sapiens, UniProt P54098)
- Sequence (P54098 whole entry): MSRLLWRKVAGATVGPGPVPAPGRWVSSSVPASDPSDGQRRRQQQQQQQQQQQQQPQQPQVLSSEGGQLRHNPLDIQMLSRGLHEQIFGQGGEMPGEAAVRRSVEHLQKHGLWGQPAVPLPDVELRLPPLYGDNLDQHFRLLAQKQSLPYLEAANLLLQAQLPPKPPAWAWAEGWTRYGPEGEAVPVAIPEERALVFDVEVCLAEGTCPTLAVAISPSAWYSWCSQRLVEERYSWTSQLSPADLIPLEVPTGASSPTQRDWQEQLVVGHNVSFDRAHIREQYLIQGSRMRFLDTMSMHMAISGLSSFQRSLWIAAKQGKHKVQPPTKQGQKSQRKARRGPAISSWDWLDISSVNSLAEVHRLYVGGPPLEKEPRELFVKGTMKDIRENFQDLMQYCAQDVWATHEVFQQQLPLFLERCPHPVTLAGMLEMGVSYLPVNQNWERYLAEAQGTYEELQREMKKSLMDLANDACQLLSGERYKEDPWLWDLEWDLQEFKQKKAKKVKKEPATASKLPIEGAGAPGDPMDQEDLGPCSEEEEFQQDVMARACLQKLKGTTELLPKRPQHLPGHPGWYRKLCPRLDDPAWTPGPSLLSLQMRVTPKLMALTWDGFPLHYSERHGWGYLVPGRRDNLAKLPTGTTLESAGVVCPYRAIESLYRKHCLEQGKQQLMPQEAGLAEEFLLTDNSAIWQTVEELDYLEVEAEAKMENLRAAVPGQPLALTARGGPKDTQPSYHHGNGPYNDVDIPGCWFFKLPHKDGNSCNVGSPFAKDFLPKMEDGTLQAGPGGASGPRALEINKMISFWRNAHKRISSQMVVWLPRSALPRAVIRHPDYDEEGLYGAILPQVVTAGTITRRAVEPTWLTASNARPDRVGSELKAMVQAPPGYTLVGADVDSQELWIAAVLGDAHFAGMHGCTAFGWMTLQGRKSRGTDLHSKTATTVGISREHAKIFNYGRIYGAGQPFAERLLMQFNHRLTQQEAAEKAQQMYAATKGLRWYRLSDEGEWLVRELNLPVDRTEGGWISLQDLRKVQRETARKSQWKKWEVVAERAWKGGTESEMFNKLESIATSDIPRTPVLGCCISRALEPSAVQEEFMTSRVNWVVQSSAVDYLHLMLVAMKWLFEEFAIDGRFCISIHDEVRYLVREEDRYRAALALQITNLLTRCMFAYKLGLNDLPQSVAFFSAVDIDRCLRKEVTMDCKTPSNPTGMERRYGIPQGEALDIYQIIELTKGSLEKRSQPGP
- test_protocol: Inhibition of human DNA polymerase gamma by microplate reader analysis
property_measured: IC50 (µM)

{"columns": ["item_smiles", "relation", "experimental_value"],
 "data": [
  ["Nc1nc(NC2CC2)c2ncn(CCOCP(=O)(O)OP(=O)(O)OP(=O)(O)O)c2n1", ">", 150],
  ["Nc1nc(=O)c2ncn(CCOCP(=O)(O)OP(=O)(O)OP(=O)(O)O)c2[nH]1", "=", 59.4]
]}

---

- test_protocol: Antiproliferative activity against HPV-transformed human C4I cells after 7 days by SRB assay
- Format: functional, cell-based
- measurement_context: C-4I, 168 h
pEC50: −log10 of the molar value.
property_measured: pEC50

{"columns": ["item_smiles", "experimental_value"],
 "data": [
  ["CC(C)COC(=O)[C@H](Cc1ccccc1)NP(=O)(COCCn1cnc2c(NC3CC3)nc(N)nc21)N[C@@H](Cc1ccccc1)C(=O)OCC(C)C", 9.36],
  ["Nc1ccn(C[C@@H](CO)OCP(=O)(O)O)c(=O)n1.O.O", 5.51],
  ["Nc1nc(NC2CC2)c2ncn(CCOCP(=O)(O)O)c2n1", 5.88],
  ["Nc1nc2c(ncn2CCOCP(=O)(O)O)c(=O)[nH]1", 6.33]
]}
